Data provenance: paper PMC9170038

Target: MS2 coat protein, dlFG mutant (Escherichia phage MS2, UniProt P03612, del68-81insG)
Experiment: 4 mM Mg2+; no ligand; RNA-MaP array; 100 mM Tris-HCl pH 7.5, 80 mM KCl, 4 mM MgCl2, 0.1 mg/mL BSA, 1 mM DTT, 0.01 mg/mL yeast tRNA, 0.01% Tween-20; protein 1.5 nM to 3 uM; 37 C (Table S3)
Conditions: chain copies: 2; label: tethered by stalled RNA polymerase
Sorting guide: entries reporting Kd beneath 20 nM go in the TRUE pile, the rest go in the FALSE pile.

binder	label.value
Eterna 7690461 (Exclusion - Theophylline A) (ssRNA) RNA: UAAUUUAUGUCUUUAAUAUAAUAAUCAGAUACCAGUGAUUUAUGACACCCUUGGCAGCUGUAUAGAGUGAUGUUCUUAUACAUAA	FALSE
Eterna 6430991 (Inverted Small Loop Exclusion NG 1) (ssRNA) RNA: CCUCGCUGUUAGAAGGCACCUUCGGCUUUGGCUUUUGGAGUUGGGCGAUGGUGAGGAUAUAACAUGAGGAUCACCCAUGUUCAA	TRUE
Eterna 6457182 (Inverted Small Loop Same State NG 1) (ssRNA) RNA: CGUCUAUGCAAGAAGGCAUGAAACAUGAGGAUCACCCAUGUCAAAGACAUGAGGAUAUUGCAUAGACGAAAAGUGCGAAAGCAC	TRUE
Eterna 7692300 (Exclusion - FMN B) (ssRNA) RNA: UGGGCUGCCUGAGGAUAUAGAGACGAGUGAUGUUCGUGGAUAAGAGCCAGUGAUGUUGGGUUAUUUCUAGAAGGCGGGCGAACUU	FALSE
Eterna 6049957 (Exclusion 6) (ssRNA) RNA: CUGAGUAGUCAGGAUAUGUGGUACAAAAGUACUGCAGAAGGGAUUACAUGAGGAUCACCCAUGUUUUCUUCAUG	FALSE
Eterna 7724662 (Same State - FMN B) (ssRNA) RNA: GUAUCGCUAGGAGGAUAUUUCAAAUAACAAAUAAAUGGUUAUACGGAGUGAUGUUCCGAUUUACGGAAAGAAGGCCUAGUGAUAC	FALSE
Eterna 7684615 (Exclusion - Tryptophan A) (ssRNA) RNA: AAAAUUGCGGUCGAUAGAACUUUUUGCUUACGAGGACCGGUACGGCCGCCACUCGAGUCAAGUGAUGUUUGAUUUUCUAUUAUUA	FALSE
Eterna 6084857 (Exclusion 6) (ssRNA) RNA: UCAAAUACUGAGGAUAUAACGACUGAAUCCGCGUUAGAAGGUAGUACAUGAGGAUCACCCAUGUCAACCAGAGG	TRUE
Eterna 7710839 (Same State - Theophylline A) (ssRNA) RNA: UAAUAAAUAAAUCCAAGGUGAAGGUCAGAUACCAGCCAGAUAACUGGCCCUUGGCAGCUGAAUAAGCUUGAGGAUCACCCAAGUA	FALSE
Eterna 6079023 (Exclusion 4) (ssRNA) RNA: UUCACGUCAGGAUAUCCAUAUUUCCGAAAUAACGGUACUUUGGAGAAGGGACAUGAGGAUCACCCAUGUCCUCG	TRUE
Eterna 7729660 (Same State - Arginine B) (ssRNA) RNA: ACGAAGGAUGGAAGGAGCGCUCGUCAGUCCUGCGAGUGAUGUUCGUGGGUAAAUAGUCGCGAGCAGGUAGGUCGCCAUCUUGAGC	FALSE
Eterna 6443759 (Same State NG 2) (ssRNA) RNA: AUUAUAAUUGAAGGAUAUCUAUAUCCAACAUGAGGAUCACCCAUGUUGAGGAUCACCCAUGUAAAGGAGAAGGUUAAUUAUAAU	FALSE
Eterna 7684249 (Exclusion - Tryptophan B) (ssRNA) RNA: UUUAUAAUGUCGGCCGCCACUGGAUUAAUAUUUGUAUAAUCUAGUUCUGAGUGAUGUUUAGAGUCCAGGACCGGGACAUUUGUUA	FALSE
Eterna 7729929 (Exclusion - Tryptophan B) (ssRNA) RNA: GGAUAGGACACGGCCGCCACUAGCUAGGAUACUAGCAACAUUUCCUCAUCUGAGGAUCACCCAGGUAGGACCGGGUGUCCUAUCG	FALSE
